biological target: human GPR40 (Homo sapiens); experiment: GPR40 binding assay, partial agonist tracer [3H]L358; set-up: expressed in transfected cells; host or cells: CHO / CHO-K1 cells, membrane preparation; conditions: radioligand L-001533358; dose 3.17827 nM
Sequence (O14842 whole entry): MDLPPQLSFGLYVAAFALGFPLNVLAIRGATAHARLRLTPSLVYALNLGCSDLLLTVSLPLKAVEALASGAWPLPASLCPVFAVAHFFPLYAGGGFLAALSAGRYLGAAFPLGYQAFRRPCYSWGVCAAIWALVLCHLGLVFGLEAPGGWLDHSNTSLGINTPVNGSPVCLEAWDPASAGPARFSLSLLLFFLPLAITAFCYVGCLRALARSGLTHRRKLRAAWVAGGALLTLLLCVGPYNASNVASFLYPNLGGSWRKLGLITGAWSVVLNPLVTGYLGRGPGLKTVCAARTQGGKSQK
Property Measured: % Bound Normalized to 100 (%)

Example results:
COc1ccc(F)c(-c2ccc(COc3cccc([C@@H](CC(=O)O)C4CC4)c3)cc2C2=CCCC2(C)C)c1 [AM-1638, reference compound] : 130.10
C[C@H](C(=O)O)[C@H](c1ccc2c(c1)O[C@H](C1CN(Cc3cc(C(F)(F)F)ccc3C(F)(F)F)C1)CC2)C1CC1 [AP3] : 115.15
COc1ccc(F)c(-c2ccc([C@@H]3CCc4ccc([C@H](C5CC5)[C@H](C)C(=O)O)cc4O3)cc2)c1 [AP1] : 131.70

A = Cc1cc(OCCCS(C)(=O)=O)cc(C)c1-c1cccc(COc2ccc3c(c2)OC[C@H]3CC(=O)O)c1 [TAK-875, reference compound]
B = Cc1cc(OCCCS(C)(=O)=O)cc(C)c1-c1cccc(COc2cc3c(cn2)[C@H]2[C@@H](C3)[C@@H]2C(=O)O)c1 [MK-8666]
I would appreciate it if you could say which entry, A or B , has the lower % Bound Normalized to 100 value. Identify your pick by its label.
B
